System: P388
Experiment Summary: Cytotoxicity against mouse P388 cells relative to camptothecin
Assay type: functional

# Smiles Text, Activity [%]
records = [
    ("C=CC(=O)OCc1c([C@@](O)(CC)C(=O)NC(C)C)cc2n(c1=O)Cc1cc3ccccc3nc1-2", 0.45),
    ("CC[C@@](O)(C(=O)NC(C)C)c1cc2n(c(=O)c1CN1CCCC1)Cc1cc3ccccc3nc1-2", 0.13),
    ("CC[C@@](O)(C(=O)NC(C)C)c1cc2n(c(=O)c1COC(C)=O)Cc1cc3ccccc3nc1-2", 0.08),
    ("CCCCCC(=O)OCc1c([C@@](O)(CC)C(=O)NC(C)C)cc2n(c1=O)Cc1cc3ccccc3nc1-2", 0.01),
]
